experiment: AUC (0 to 12 hrs) in human at 100 mg, po BID administered on day 1 followed by 2-day wash out period after which dosing continued up to day 11 measured on day 11; format: ADME, organism-based; design: time < 12 hr, dose 100 mg, route oral; settings: plasma
Quantity kind: AUC at 12 h (µM·h)
Quick note: give the figure in µM·h, leave out the unit.

# lookup: AUC at 12 h of `O=C(O)c1n[nH]c2c1C[C@H]1C[C@@H]21`
0.0611

###

experiment: Cmin in human at 150 mg, po BID administered on day 1 followed by 2-day wash out period after which dosing continued up to day 11 measured on day 11 at 12 hrs; assay type: ADME, organism-based; conditions: in vivo, read-out: Cmin
Quantity kind: concentration at 12 h
Could you kindly put the unit after your number?

# lookup: concentration at 12 h of `O=C(O)c1n[nH]c2c1C[C@H]1C[C@@H]21`
0.208 nM

###

experiment: Tmax in human at 175 mg, po QID administered on day 1 followed by 2-days wash out period after which dosing continued up to day 11 measured on day 1; type: ADME, organism-based; details: in vivo
Quantity kind: Tmax (h)
Quick note: give the figure in h, leave out the unit.

# lookup: Tmax of `O=C(O)c1n[nH]c2c1C[C@H]1C[C@@H]21`
1.25

###

test: Cmax in human at titreated po dose administered from day 1 to 4 followed by 200 mg, po QD administered up to day 11 measured on day 4; type: ADME, organism-based; parameters: dose 200 mg, route oral; conditions: in vivo
Quantity kind: Cmax (nM)
Quick note: give the figure in nM, leave out the unit.

# lookup: Cmax of `O=C(O)c1n[nH]c2c1C[C@H]1C[C@@H]21`
56.3

###

assay: Tmax in human at 100 mg, po BID administered on day 1 followed by 2-day wash out period after which dosing continued up to day 11 measured on day 11; type: ADME, organism-based; conditions: in vivo
Quantity kind: Tmax
Could you kindly put the unit after your number?

# lookup: Tmax of `O=C(O)c1n[nH]c2c1C[C@H]1C[C@@H]21`
30 min

###

assay: Terminal half life in dog; type: ADME, organism-based, Canis lupus familiaris; conditions: in vivo, read-out: beta t1/2 (converted)
Property: half-life; scope: individual compounds
Quick note: give the figure in h, leave out the unit.

mol_smiles=C[C@@H]1[C@@H]2Cc3c(C(=O)O)n[nH]c3[C@H]12 measured_number=2.1

Now look at this one.
# lookup: half-life of `O=C(O)c1n[nH]c2c1C[C@H]1C[C@@H]21`
3.4

###

assay: AUC (0 to 12 hrs) in human at 50 mg, po BID administered on day 1 followed by 2-day wash out period after which dosing continued up to day 11 measured on day 4; assay type: ADME, organism-based; set-up: time < 12 hr, dose 50 mg, route oral; conditions: plasma
Quantity kind: AUC at 12 h (µM·h)
Quick note: give the figure in µM·h, leave out the unit.

# lookup: AUC at 12 h of `O=C(O)c1n[nH]c2c1C[C@H]1C[C@@H]21`
0.0261

###

test: Apparent half life in human at 150 mg, po BID administered on day 1 followed by 2-day wash out period after which dosing continued up to day 11 measured on day 11; format: ADME, organism-based; details: in vivo, read-out: t1/2(app) (converted)
Quantity kind: half-life (h)
Quick note: give the figure in h, leave out the unit.

# lookup: half-life of `O=C(O)c1n[nH]c2c1C[C@H]1C[C@@H]21`
8.9
